B1: BTBD10 (parent)
chain: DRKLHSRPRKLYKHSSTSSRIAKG

variants of: B1; assay: protein stability index of a GFP-peptide fusion (GPS, HEK-293T) (PSI 1-6); higher = more stable; details: c terminus: a fixed tail appended;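 also: lentivirally expressed fusions sorted by FACS into six bins by GFP to DsRed ratio, PSI derived from sequencing read proportions per bin multiplied by bin number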
endpoint label: protein stability index
Give the figure by itself; no unit, no explanation.

A selection of reference data follows.
- DRKLHSRQRKLYKHSSTSSRIAKG [P8Q]: 4.24
- DRKLHSRPRKLYKHSSTSKRIAKG [S19K]: 4.18
- DRKLHSRPLKLYKHSSTSSRIAKG [R9L]: 3.85

Let me know recorded protein stability index for DRKLHSRPRKLYKHSSTSVRIAKG [S19V] , thanks.
3.65

Let me know recorded protein stability index for DRKLHHRPRKLYKHSSTSSRIAKG [S6H] , thanks.
3.68

Let me know recorded protein stability index for DRKLHSRPRKLYKFSSTSSRIAKG [H14F] , thanks.
4.44

Let me know recorded protein stability index for DRKDHSRPRKLYKHSSTSSRIAKG [L4D] , thanks.
4.49

Let me know recorded protein stability index for DRKLHSRPRKLYKHSSTSSRIAMG [K23M] , thanks.
2.89

Let me know recorded protein stability index for DRKLHSRPMKLYKHSSTSSRIAKG [R9M] , thanks.
3.74

Let me know recorded protein stability index for DRKLHSRPRKLYAHSSTSSRIAKG [K13A] , thanks.
4.04

Let me know recorded protein stability index for DTKLHSRPRKLYKHSSTSSRIAKG [R2T] , thanks.
4.09

Let me know recorded protein stability index for DRKLHSRPRKLYKHSSTSSRIACG [K23C] , thanks.
3.17
